Test system: Plasmodium falciparum
protocol-details: Antimalarial activity after 24 hrs against chloroquine-resistant Plasmodium falciparum W2 infected type A+ human erythrocytes by [3H]hypoxanthine uptake
Type: functional
experimental-context: read-out: ED50 (the source's name)
Listed below: EC50 values for each entry.
reported-metric: EC50 (mg/L)

>>> print(df.to_string())
                                   molecule  reported_metric  result
0  COc1ccc2cc1Oc1ccc(cc1)C[C@H]1c3c(cc4c(c3Oc3cc5c(cc3OC)CCN[C@@H]5C2)OCO4)CCN1C             EC50   0.129
1  COc1ccc2cc1Oc1ccc(cc1)C[C@H]1c3c(cc(OC)c(OC)c3Oc3cc4c(cc3OC)CCN[C@@H]4C2)CCN1C             EC50  0.0937
2  COc1ccc2cc1Oc1ccc(cc1)C[C@H]1c3cc(c(OC)cc3CCN1C)Oc1c(O)c(OC)cc3c1[C@@H](C2)N(C)CC3             EC50    0.23
3  COc1ccc2cc1Oc1ccc(cc1)C[C@H]1c3cc(c(OC)cc3CCN1C)Oc1c(O)c(OC)cc3c1[C@@H](C2)NCC3             EC50   0.125
4  COc1ccc2cc1Oc1ccc(cc1)C[C@H]1c3cc(c(OC)cc3CCN1C)Oc1c(OC)c(OC)cc3c1[C@@H](C2)N(C)CC3             EC50  0.0546
5  COc1ccc2cc1Oc1ccc(cc1)C[C@H]1c3c(cc4c(c3Oc3cc5c(cc3OC)CCN(C)[C@@H]5C2)OCO4)CCN1C             EC50   0.295
6  COc1ccc2cc1Oc1ccc(cc1)C[C@H]1c3c(cc(OC)c4c3Oc3cc5c(cc3O4)CCN(C)[C@@H]5C2)CCN1C             EC50   0.256
7  OC(c1cc(C(F)(F)F)nc2c(C(F)(F)F)cccc12)C1CCCCN1 (centres undefined)             EC50  0.0012
8  COc1ccc2cc1Oc1ccc(cc1)C[C@H]1c3c(cc(OC)c(O)c3Oc3cc4c(cc3OC)CCN[C@@H]4C2)CCN1C             EC50   0.223
